Data origin: ChEMBL document CHEMBL1143444

Let's go through some pIC50 measurements on Epidermal growth factor receptor (Homo sapiens) together.
Sequence (P00533 whole entry): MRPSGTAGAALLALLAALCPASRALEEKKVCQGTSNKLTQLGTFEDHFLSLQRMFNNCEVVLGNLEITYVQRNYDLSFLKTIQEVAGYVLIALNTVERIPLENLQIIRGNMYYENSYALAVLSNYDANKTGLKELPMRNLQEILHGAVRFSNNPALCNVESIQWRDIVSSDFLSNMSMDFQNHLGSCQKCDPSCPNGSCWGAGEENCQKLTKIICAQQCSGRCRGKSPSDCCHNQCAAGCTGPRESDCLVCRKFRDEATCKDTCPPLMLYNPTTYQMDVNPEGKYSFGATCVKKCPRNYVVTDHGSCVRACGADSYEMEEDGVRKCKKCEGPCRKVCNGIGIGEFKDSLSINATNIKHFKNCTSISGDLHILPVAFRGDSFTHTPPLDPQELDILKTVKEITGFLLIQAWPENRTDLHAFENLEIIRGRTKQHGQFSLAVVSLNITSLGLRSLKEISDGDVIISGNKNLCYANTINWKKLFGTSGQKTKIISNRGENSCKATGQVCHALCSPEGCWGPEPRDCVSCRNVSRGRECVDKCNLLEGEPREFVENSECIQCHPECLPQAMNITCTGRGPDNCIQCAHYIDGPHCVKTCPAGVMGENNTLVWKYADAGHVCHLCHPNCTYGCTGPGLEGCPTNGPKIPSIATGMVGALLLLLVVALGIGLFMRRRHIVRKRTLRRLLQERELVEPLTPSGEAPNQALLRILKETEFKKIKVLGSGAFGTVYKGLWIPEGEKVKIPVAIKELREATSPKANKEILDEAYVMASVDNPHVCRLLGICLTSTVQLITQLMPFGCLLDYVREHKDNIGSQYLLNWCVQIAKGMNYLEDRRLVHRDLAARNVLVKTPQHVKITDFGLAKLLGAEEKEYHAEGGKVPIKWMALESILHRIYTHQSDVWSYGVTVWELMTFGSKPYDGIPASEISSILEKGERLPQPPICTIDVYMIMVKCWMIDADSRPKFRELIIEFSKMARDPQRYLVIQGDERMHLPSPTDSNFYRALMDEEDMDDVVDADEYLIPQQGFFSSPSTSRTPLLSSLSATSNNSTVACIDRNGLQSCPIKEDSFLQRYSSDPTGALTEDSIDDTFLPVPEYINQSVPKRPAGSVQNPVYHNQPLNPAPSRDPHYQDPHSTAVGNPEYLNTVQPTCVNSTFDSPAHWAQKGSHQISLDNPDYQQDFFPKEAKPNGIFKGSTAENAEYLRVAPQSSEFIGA
For clarity, pIC50 is expressed as the negative log10 of concentration in mol/L.

Example entries begin here.
* CCOC(=O)O[C@H]1CN[C@H](C#Cc2cc3ncnc(Nc4ccc(OCc5cccc(F)c5)c(Cl)c4)c3s2)C1 | 6.85
* CNC(=O)O[C@H]1CN[C@H](C#Cc2cc3ncnc(Nc4ccc(OCc5cccc(F)c5)c(Cl)c4)c3s2)C1 | 7.30

Problem: I'm curious: which pIC50 was measured for "CCOC(=O)N[C@H]1CN[C@H](C#Cc2cc3ncnc(Nc4ccc(OCc5cccc(F)c5)c(Cl)c4)c3s2)C1" tested on Epidermal growth factor receptor (Homo sapiens)?
Solution: 7.22

Problem: API: value(readout=pIC50, system=Epidermal growth factor receptor (Homo sapiens)) for record "CS(=O)(=O)N1CCC[C@@H]1C#Cc1cc2ncnc(Nc3ccc(OCc4cccc(F)c4)c(Cl)c3)c2s1"
Solution: 6.92

Problem: Missing value: pIC50, Epidermal growth factor receptor (Homo sapiens), entry "CCO[C@H]1CN[C@H](C#Cc2cc3ncnc(Nc4ccc(OCc5cccc(F)c5)c(Cl)c4)c3s2)C1" . Fill in?
Solution: 6.94

Problem: I'm curious: which pIC50 was measured for CCNC(=O)O[C@H]1CN[C@H](C#Cc2cc3ncnc(Nc4ccc(OCc5cccc(F)c5)c(Cl)c4)c3s2)C1 [GSK-192082A] tested on Epidermal growth factor receptor (Homo sapiens)?
Solution: 7.49

Problem: I'm curious: which pIC50 was measured for "CS(=O)(=O)O[C@H]1CN[C@H](C#Cc2cc3ncnc(Nc4ccc(OCc5cccc(F)c5)c(Cl)c4)c3s2)C1" tested on Epidermal growth factor receptor (Homo sapiens)?
Solution: 7.09

Problem: Missing value: pIC50, Epidermal growth factor receptor (Homo sapiens), entry "COCCN1CCC[C@@H]1C#Cc1cc2ncnc(Nc3ccc(OCc4cccc(F)c4)c(Cl)c3)c2s1" . Fill in?
Solution: 6.89

---

Receptor tyrosine-protein kinase erbB-2 (Homo sapiens) data, read-out pIC50
Sequence (P04626 whole entry): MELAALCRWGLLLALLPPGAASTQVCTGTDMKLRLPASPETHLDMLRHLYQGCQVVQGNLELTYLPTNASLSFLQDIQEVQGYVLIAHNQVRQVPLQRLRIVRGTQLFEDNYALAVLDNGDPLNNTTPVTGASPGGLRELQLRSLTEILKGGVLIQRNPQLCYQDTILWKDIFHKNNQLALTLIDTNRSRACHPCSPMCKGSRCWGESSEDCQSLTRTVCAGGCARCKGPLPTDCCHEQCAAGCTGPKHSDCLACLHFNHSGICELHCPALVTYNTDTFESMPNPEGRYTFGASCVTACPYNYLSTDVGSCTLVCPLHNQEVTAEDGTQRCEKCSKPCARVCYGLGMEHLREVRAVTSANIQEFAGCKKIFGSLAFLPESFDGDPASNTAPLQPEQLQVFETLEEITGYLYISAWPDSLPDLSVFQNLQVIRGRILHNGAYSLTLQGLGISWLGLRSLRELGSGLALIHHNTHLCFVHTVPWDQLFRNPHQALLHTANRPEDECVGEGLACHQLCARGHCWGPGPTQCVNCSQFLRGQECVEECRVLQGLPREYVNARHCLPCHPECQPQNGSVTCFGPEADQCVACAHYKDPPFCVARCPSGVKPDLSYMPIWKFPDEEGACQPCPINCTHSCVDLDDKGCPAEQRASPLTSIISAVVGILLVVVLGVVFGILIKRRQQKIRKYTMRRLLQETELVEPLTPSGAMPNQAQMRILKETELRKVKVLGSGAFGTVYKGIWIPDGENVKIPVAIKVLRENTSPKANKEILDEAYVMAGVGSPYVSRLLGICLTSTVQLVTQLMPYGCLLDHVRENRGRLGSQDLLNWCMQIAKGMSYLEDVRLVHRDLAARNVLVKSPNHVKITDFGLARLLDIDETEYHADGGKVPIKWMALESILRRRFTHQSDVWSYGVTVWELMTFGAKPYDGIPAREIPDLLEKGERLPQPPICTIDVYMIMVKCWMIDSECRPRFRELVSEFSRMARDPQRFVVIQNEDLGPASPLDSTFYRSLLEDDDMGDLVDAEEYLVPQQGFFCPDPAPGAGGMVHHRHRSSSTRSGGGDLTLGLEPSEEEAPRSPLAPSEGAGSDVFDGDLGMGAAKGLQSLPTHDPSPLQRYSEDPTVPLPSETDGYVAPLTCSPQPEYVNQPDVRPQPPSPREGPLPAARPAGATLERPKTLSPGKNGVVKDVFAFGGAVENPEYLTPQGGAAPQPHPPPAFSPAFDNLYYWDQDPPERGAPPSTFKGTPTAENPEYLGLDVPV
Interpret pIC50 as the negative base-10 log of the concentration measured in mol/L.

* CNC(=O)O[C@H]1CN[C@H](C#Cc2cc3ncnc(Nc4ccc(OCc5cccc(F)c5)c(Cl)c4)c3s2)C1 | 7.70

Problem: Sample "CCC(=O)O[C@H]1CN[C@H](C#Cc2cc3ncnc(Nc4ccc(OCc5cccc(F)c5)c(Cl)c4)c3s2)C1" — what was its pIC50?
Solution: 7.05

Problem: Which value of pIC50 has been reported for "CCOC(=O)O[C@H]1CN[C@H](C#Cc2cc3ncnc(Nc4ccc(OCc5cccc(F)c5)c(Cl)c4)c3s2)C1" in the records?
Solution: 6.87

Problem: Request the reported pIC50 associated with "O[C@H]1CN[C@H](C#Cc2cc3ncnc(Nc4ccc(OCc5cccc(F)c5)c(Cl)c4)c3s2)C1"
Solution: 7.96

---

system: HN5; test: Antiproliferative activity against human HN5 cells overexpressing EGFR after 3 days by methylene blue staining; settings: HN5, 72 h
endpoint.label: IC50 (nM)
// return numeric value only (unit: nM, not printed)

These recorded examples may help you get a feel for the data.
- CS(=O)(=O)O[C@H]1CN[C@H](C#Cc2cc3ncnc(Nc4ccc(OCc5cccc(F)c5)c(Cl)c4)c3s2)C1: 380
- CC(=O)N1CCC[C@@H]1C#Cc1cc2ncnc(Nc3ccc(OCc4cccc(F)c4)c(Cl)c3)c2s1: 37
- CCOC(=O)N[C@H]1CN[C@H](C#Cc2cc3ncnc(Nc4ccc(OCc5cccc(F)c5)c(Cl)c4)c3s2)C1: 113

# input for lookup
Problem: Consider the molecule "CCOC(=O)O[C@H]1CN[C@H](C#Cc2cc3ncnc(Nc4ccc(OCc5cccc(F)c5)c(Cl)c4)c3s2)C1" and give its measured IC50.
Solution: 200
